Every entry's value here was drawn from patent US9249129B2.

Assignment: determine reported pIC50 for the given compounds.
target: PI3K delta (PI3Kd) (Homo sapiens); construct: endogenous in cells; host or cells: Jurkat cells (ATCC TIB-152, clone E6-1), lysate; assay: kinobeads assay, PI3K delta (dot blot detection); assay type: binding; details: Table 2, Jurkat cell lysate, read-out: Inhibition values (IC50) PI3Kd
Sequence (O00329 whole entry): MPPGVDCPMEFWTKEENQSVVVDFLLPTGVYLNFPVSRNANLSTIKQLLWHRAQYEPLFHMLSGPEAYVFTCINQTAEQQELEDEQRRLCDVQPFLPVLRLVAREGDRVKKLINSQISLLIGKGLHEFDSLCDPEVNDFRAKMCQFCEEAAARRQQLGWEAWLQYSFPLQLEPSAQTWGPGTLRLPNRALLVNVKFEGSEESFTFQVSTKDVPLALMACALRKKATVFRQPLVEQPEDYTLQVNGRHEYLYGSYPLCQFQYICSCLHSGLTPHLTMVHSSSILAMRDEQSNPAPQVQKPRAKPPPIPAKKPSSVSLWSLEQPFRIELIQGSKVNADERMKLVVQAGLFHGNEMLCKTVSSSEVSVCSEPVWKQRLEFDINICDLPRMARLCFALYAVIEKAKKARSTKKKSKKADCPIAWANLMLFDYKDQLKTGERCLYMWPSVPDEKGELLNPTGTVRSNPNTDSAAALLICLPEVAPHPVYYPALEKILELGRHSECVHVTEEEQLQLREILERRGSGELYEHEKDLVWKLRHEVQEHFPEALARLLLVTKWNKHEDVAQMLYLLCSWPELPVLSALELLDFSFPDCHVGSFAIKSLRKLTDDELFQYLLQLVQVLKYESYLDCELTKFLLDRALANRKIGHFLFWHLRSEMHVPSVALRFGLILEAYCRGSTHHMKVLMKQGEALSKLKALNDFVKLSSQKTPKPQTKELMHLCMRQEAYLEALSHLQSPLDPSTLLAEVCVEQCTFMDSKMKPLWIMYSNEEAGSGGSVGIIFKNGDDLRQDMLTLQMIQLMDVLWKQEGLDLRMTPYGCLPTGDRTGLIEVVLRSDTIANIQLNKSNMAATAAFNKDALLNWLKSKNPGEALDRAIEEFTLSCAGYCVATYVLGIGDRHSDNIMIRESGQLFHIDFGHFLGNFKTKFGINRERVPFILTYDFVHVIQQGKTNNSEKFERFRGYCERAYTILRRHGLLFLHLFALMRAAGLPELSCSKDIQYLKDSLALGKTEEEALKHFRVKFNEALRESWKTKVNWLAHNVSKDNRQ
Sequence (P27986 whole entry partner): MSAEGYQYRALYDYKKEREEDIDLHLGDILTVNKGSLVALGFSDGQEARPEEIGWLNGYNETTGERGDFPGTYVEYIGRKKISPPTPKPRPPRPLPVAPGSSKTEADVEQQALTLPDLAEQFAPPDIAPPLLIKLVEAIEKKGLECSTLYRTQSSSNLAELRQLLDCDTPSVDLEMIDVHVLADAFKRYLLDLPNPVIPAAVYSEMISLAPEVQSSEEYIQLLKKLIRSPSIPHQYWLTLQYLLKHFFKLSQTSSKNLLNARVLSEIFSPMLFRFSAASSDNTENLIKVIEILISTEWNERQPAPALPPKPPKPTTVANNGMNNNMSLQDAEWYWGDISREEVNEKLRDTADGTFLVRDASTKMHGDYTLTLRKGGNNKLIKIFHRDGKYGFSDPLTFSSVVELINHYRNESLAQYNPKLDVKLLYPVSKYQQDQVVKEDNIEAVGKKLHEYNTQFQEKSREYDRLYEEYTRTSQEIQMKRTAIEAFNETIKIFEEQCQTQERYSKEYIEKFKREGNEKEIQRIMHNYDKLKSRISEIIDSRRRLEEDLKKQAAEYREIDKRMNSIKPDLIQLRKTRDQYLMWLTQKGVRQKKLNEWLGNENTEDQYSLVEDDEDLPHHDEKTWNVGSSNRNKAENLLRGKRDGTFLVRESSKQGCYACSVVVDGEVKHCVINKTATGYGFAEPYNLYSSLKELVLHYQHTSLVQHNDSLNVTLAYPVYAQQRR
pIC50: −log10 of the molar value.

[in] What does the data say about its pIC50? Entry: CCNC(=O)Nc1ccc(-c2ccnc(N3CCOCC3)n2)cc1 [Example 29]
[out] ≤ 5.00

[in] Okay, and C[C@H]1COCCN1c1cc(-c2cc(F)ccc2S(C)(=O)=O)nc(-c2ccc(NC(=O)NC3CC3)cc2F)n1 [Example 66] ?
[out] ≤ 5.00

[in] Okay, and O=C(Nc1ccc(-c2nccc(N3CC4CCC(C3)O4)n2)cc1)NC1CC1 [Example 48] ?
[out] ≤ 5.00

* * *

target: kinases (kinome) (Homo sapiens, UniProt Q9H2G2); construct: determined in kinobeads assays with mass spectrometry detection of kinases as described previously; endogenous in cells; experiment: kinobeads assay with mass spectrometry detection of kinases (kinase selectivity profile); conditions: SLK (STE), IPI00022827
Sequence (Q9H2G2 whole entry): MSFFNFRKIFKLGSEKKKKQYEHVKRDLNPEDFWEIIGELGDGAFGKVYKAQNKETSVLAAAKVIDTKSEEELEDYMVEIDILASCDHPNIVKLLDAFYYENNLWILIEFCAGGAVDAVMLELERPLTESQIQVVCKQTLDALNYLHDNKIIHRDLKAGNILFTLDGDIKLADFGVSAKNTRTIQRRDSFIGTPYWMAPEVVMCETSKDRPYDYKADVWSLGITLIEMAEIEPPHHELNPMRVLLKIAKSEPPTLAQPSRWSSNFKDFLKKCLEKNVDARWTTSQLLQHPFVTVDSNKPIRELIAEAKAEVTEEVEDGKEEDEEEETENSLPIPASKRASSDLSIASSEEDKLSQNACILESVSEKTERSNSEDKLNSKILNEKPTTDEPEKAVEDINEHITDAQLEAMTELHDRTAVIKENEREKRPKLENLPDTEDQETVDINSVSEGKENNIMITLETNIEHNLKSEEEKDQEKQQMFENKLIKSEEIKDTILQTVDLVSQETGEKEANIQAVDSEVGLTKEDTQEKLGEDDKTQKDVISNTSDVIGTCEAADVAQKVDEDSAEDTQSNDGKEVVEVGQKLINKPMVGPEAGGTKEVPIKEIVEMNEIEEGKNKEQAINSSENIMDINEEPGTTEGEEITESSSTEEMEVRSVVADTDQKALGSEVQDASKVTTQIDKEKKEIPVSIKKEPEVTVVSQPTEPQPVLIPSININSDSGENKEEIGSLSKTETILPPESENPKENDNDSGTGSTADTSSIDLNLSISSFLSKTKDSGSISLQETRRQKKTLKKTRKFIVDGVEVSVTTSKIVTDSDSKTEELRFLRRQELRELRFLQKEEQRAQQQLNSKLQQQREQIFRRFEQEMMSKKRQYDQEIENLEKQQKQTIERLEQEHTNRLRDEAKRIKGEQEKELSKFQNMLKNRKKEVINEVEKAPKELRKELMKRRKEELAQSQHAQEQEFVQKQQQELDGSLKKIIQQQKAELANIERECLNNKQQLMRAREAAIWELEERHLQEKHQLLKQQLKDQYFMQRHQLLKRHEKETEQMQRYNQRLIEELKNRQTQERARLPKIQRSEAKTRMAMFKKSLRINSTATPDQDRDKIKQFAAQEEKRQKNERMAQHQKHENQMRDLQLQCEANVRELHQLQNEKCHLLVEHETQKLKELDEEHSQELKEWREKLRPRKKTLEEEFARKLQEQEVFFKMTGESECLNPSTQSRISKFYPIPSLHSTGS
pIC50: −log10 of the molar value.
value_type: pIC50

[in] Observed pIC50 on kinases (kinome) (Homo sapiens, UniProt Q9H2G2) for C[C@H]1COCCN1c1nc(-c2ccc(NC(=O)NC3CC3)cc2)cc(-c2ccccc2S(C)(=O)=O)n1 , please.
[out] < 5.00

* * *

Assignment: determine reported IC50 for the given compounds.
biological target: DNA-dependent protein kinase (DNA-PK) (Homo sapiens); construct: endogenous in cells; host or cells: Jurkat cells (ATCC TIB-152, clone E6-1), lysate; assay: kinobeads assay, DNA-PK (dot blot detection); type: binding; details: Table 4, read-out: Inhibition values (IC50) DNAPK

[in] What does the data say about its IC50? Entry: CNC(=O)Nc1ccc(-c2nccc(N3CCOCC3)n2)cc1
[out] 1 to 10 µM

[in] Okay, and O=C(Nc1ccc(-c2nccc(N3CC4CCC(C3)O4)n2)cc1)NC1CC1 ?
[out] 1 to 10 µM

[in] Okay, and NC(=O)Nc1ccc(-c2nccc(N3CCOCC3)n2)cc1 ?
[out] 1 to 10 µM

[in] Okay, and CCNC(=O)Nc1ccc(-c2nccc(N3CCOCC3)n2)cc1 ?
[out] 1 to 10 µM

[in] Okay, and C[C@H]1COCCN1c1cc(-c2cncc(F)c2)nc(-c2ccc(NC(=O)NC3CC3)cc2)n1 ?
[out] ≥ 10 µM

[in] Okay, and CCNC(=O)Nc1ccc(-c2nccc(N3CC4CCC(C3)O4)n2)cc1 ?
[out] 1 to 10 µM

[in] Okay, and CCNC(=O)Nc1ccc(-c2ccnc(N3CCOCC3)n2)cc1 ?
[out] 1 to 10 µM

[in] Okay, and C[C@H]1COCCN1c1cc(-c2cccnc2)nc(-c2ccc(NC(=O)NC3CC3)cc2)n1 ?
[out] ≥ 10 µM

[in] Okay, and CS(=O)(=O)c1ccc(F)cc1-c1cc(-c2ccc(NC(=O)NCCO)cc2)nc(N2CCOCC2)n1 ?
[out] ≥ 10 µM

* * *

target: DNA-dependent protein kinase (DNA-PK) (Homo sapiens); construct: endogenous in cells; host or cells: Jurkat cells (ATCC TIB-152, clone E6-1), lysate; test: kinobeads assay, DNA-PK (dot blot detection); format: binding; conditions: Table 2, Jurkat cell lysate, read-out: Inhibition values (IC50) DNAPK
Assignment: determine reported IC50 for the given molecules.

[in] What does the data say about its IC50? Entry: C[C@H]1COCCN1c1ccnc(-c2ccc(NC(=O)NC3CC3)cc2)n1
[out] ≥ 10 µM

[in] Okay, and C[C@H]1COCCN1c1ccnc(-c2ccc(NC(=O)NCC(F)F)cc2)n1 ?
[out] ≥ 10 µM

[in] Okay, and C[C@H]1COCCN1c1nc(-c2ccc(NC(=O)NCCF)cc2)cc(-c2cc(F)ccc2S(C)(=O)=O)n1 ?
[out] ≥ 10 µM

[in] Okay, and C[C@H]1COCCN1c1cc(-c2ccccn2)nc(-c2ccc(NC(=O)NCCO)cc2)n1 ?
[out] ≥ 10 µM

[in] Okay, and C[C@H]1COCCN1c1cc(-c2cncc(F)c2)nc(-c2ccc(NC(=O)NC3CC3)cc2)n1 ?
[out] ≥ 10 µM

[in] Okay, and C[C@H]1COCCN1c1cc(-c2ccccc2S(C)(=O)=O)nc(-c2ccc(NC(=O)NC3CC3)cc2)n1 ?
[out] ≥ 10 µM

[in] Okay, and CCNC(=O)Nc1ccc(-c2nccc(N3CCOCC3)n2)cc1 ?
[out] 1 to 10 µM

[in] Okay, and C[C@H]1COCCN1c1cc(-c2cc(F)ccc2S(C)(=O)=O)nc(-c2ccc(NC(=O)NCCO)cc2F)n1 ?
[out] ≥ 10 µM

[in] Okay, and CC(O)CNC(=O)Nc1ccc(-c2cc(-c3cc(F)ccc3S(C)(=O)=O)nc(N3CCOC[C@@H]3C)n2)cc1 (stereo partly shown) ?
[out] ≥ 10 µM

[in] Okay, and C[C@H]1COCCN1c1cc(-c2ccncc2F)nc(-c2ccc(NC(=O)NC3CC3)cc2)n1 ?
[out] ≥ 10 µM

[in] Okay, and CNC(=O)Nc1ccc(-c2ccnc(N3CCOCC3)n2)cc1 ?
[out] 1 to 10 µM

[in] Okay, and CCNC(=O)Nc1ccc(-c2ccnc(N3CC4CCC(C3)O4)n2)cc1 ?
[out] ≥ 10 µM

[in] Okay, and C[C@H]1COCCN1c1nccc(-c2ccc(NC(=O)NCCO)cc2)n1 ?
[out] ≥ 10 µM

* * *

Assignment: determine reported IC50 for the given molecules.
molecular target: DNA-dependent protein kinase (DNA-PK) (Homo sapiens, UniProt P78527); construct: endogenous in cells; host or cells: Jurkat cells (ATCC TIB-152, clone E6-1), lysate; assay: kinobeads assay, DNA-PK (dot blot detection); type: binding; settings: Table 4, read-out: Inhibition values (IC50) DNAPK

[in] What does the data say about its IC50? Entry: C[C@H]1COCCN1c1cc(-c2cncc(S(C)(=O)=O)c2)nc(-c2ccc(NC(=O)NC3CC3)cc2)n1
[out] ≥ 10 µM

[in] Okay, and CCCNC(=O)Nc1ccc(-c2ccnc(N3CCOCC3)n2)cc1 ?
[out] 1 to 10 µM

[in] Okay, and CCS(=O)(=O)c1ccccc1-c1cc(-c2ccc(NC(=O)NC3CC3)cc2)nc(N2CCOC[C@@H]2C)n1 ?
[out] ≥ 10 µM

[in] Okay, and O=C(Nc1ccc(-c2ccnc(N3CCOCC3)n2)cc1)NC1CC1 ?
[out] ≥ 10 µM

[in] Okay, and CCNC(=O)Nc1ccc(-c2cc(-c3ccccc3C#N)nc(N3CCOC[C@@H]3C)n2)cc1 ?
[out] ≥ 10 µM

[in] Okay, and C[C@H]1COCCN1c1nc(-c2ccc(NC(=O)NCCCO)cc2)cc(-c2cc(F)ccc2S(C)(=O)=O)n1 ?
[out] ≥ 10 µM

[in] Okay, and CCNC(=O)Nc1ccc(-c2cc(-c3ccccc3NS(C)(=O)=O)nc(N3CCOC[C@@H]3C)n2)cc1 ?
[out] ≥ 10 µM

[in] Okay, and C[C@@H](CO)NC(=O)Nc1ccc(-c2cc(-c3cc(F)ccc3S(C)(=O)=O)nc(N3CCOC[C@@H]3C)n2)cc1 ?
[out] ≥ 10 µM

[in] Okay, and CC(O)CNC(=O)Nc1ccc(-c2cc(-c3cc(F)ccc3S(C)(=O)=O)nc(N3CCOC[C@@H]3C)n2)cc1 (stereo partly drawn) ?
[out] ≥ 10 µM

[in] Okay, and C[C@H]1COCCN1c1ccnc(-c2ccc(NC(=O)Nc3ccncc3)cc2)n1 ?
[out] ≥ 10 µM

[in] Okay, and C[C@H]1COCCN1c1cc(-c2cncc(F)c2)nc(-c2ccc(NC(=O)NCCF)cc2F)n1 ?
[out] ≥ 10 µM

[in] Okay, and O=C(NCCF)Nc1ccc(-c2nccc(N3CC4CCC(C3)O4)n2)cc1 ?
[out] 1 to 10 µM

* * *

molecular target: kinases (kinome) (Homo sapiens); construct: determined in kinobeads assays with mass spectrometry detection of kinases as described previously; endogenous in cells; host or cells: cell lysate; assay: kinobeads assay with mass spectrometry detection of kinases (kinase selectivity profile); assay type: binding; settings: DYRK1A (CMGC), IPI00014344
value_type: IC50

[in] Observed IC50 on kinases (kinome) (Homo sapiens) for C[C@H]1COCCN1c1nc(-c2ccc(NC(=O)NC3CC3)cc2)cc(-c2ccccc2S(C)(=O)=O)n1 , please.
[out] > 10 µM

* * *

target: kinases (kinome) (Homo sapiens, UniProt Q9NSY1); construct: determined in kinobeads assays with mass spectrometry detection of kinases as described previously; endogenous in cells; test: kinobeads assay with mass spectrometry detection of kinases (kinase selectivity profile); conditions: BIKE (Other), IPI00337426
Sequence (Q9NSY1 whole entry): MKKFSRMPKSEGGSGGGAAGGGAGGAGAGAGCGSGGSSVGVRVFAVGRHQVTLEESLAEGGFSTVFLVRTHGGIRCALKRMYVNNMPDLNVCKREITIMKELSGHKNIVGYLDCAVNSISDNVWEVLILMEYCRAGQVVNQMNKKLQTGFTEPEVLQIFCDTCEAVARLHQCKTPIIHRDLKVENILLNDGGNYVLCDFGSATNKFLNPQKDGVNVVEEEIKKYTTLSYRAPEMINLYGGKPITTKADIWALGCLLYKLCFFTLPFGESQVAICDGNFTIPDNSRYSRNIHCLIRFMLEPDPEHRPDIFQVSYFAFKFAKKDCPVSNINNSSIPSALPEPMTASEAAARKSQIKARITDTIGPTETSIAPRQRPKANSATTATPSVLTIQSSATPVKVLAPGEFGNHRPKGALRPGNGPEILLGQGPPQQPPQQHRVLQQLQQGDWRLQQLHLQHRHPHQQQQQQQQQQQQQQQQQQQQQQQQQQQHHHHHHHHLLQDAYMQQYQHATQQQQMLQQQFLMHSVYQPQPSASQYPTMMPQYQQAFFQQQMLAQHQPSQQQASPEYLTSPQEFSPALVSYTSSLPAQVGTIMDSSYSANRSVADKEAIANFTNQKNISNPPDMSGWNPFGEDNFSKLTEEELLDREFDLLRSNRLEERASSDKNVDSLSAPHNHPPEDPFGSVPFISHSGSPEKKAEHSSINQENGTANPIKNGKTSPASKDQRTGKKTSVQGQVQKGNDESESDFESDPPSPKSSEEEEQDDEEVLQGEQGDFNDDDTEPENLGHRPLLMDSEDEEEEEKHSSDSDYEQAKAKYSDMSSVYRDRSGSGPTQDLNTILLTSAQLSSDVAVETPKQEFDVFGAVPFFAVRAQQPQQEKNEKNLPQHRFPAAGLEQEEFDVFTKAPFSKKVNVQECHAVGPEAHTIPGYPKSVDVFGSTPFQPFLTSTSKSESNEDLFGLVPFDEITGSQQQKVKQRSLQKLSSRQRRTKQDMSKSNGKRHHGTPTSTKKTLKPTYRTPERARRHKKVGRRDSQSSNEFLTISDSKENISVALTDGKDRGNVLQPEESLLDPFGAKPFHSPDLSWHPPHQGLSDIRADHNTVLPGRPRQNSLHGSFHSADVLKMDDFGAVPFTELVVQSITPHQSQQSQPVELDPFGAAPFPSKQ
pIC50: −log10 of the molar value.
value_type: pIC50

[in] What does the data say about its pIC50? Entry: C[C@H]1COCCN1c1nc(-c2ccc(NC(=O)NC3CC3)cc2)cc(-c2cc(F)ccc2S(C)(=O)=O)n1
[out] < 5.00

[in] Okay, and C[C@H]1COCCN1c1cc(-c2ccccn2)nc(-c2ccc(NC(=O)NCCO)cc2)n1 ?
[out] < 5.00

[in] Okay, and C[C@H]1COCCN1c1nc(-c2ccc(NC(=O)N[C@H]3CCC[C@@H]3O)cc2)cc(-c2cc(F)ccc2S(C)(=O)=O)n1 ?
[out] < 5.00

[in] Okay, and C[C@H]1COCCN1c1nc(-c2ccc(NC(=O)NC3CC3)cc2)cc(-c2ccccc2S(C)(=O)=O)n1 ?
[out] < 5.00

[in] Okay, and C[C@H]1COCCN1c1cc(-c2ccccc2S(C)(=O)=O)nc(-c2ccc(NC(=O)NC3CC3)cc2)n1 ?
[out] < 5.00

[in] Okay, and CCNC(=O)Nc1ccc(-c2cc(-c3ccccc3C#N)nc(N3CCOC[C@@H]3C)n2)cc1 ?
[out] < 5.00

[in] Okay, and C[C@H]1COCCN1c1nc(-c2ccc(NC(=O)NC3CC3)cc2)cc(-c2cccnc2S(C)(=O)=O)n1 ?
[out] < 5.00
